EXPERIMENTAL_TARGET: rat P2X3 receptor (Rattus norvegicus, UniProt P49654)
Construct: expressed in transfected cells; host or cells: CHO-K1
Sequence (P49654 1-397): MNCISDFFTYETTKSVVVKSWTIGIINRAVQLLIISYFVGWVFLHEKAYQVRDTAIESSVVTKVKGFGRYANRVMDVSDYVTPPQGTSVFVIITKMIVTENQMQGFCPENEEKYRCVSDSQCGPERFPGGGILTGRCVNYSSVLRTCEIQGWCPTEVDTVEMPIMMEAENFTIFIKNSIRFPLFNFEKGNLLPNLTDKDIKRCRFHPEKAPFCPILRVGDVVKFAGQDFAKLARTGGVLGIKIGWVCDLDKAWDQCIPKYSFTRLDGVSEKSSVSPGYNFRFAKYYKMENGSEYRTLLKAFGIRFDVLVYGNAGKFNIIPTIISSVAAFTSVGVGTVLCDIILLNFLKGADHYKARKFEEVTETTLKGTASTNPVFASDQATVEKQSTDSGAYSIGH
EXPERIMENT_NOTES: P2X3 FLIPR (Fluorometric Imaging Plate Reader) assay
Assay type: cell-based
STATED_CONDITIONS: CHO-K1 cells transfected with cloned rat P2X3; agonist α,β-meATP 1 μM; Fluo-3 AM calcium fluorescence
Threshold rule: P2X3 (pIC50 values for the P2X3 receptor) greater than or equal to 7 is 1 (yes); below that, 0 (no).

- COMPOUND: "COCC(C)NC(=O)c1cc(NC(=O)c2cscc2OC)cc(-c2ccc(C)cc2)c1 (centres unmarked)"
  LABEL_VALUE: "0 (no)"
- COMPOUND: "COCC(=O)N(C)c1cc(C(=O)NC(C)c2cnccn2)cc(-c2ccc(C)cc2)c1 (centres unmarked)"
  LABEL_VALUE: "0 (no)"
- COMPOUND: "Cc1ccc(-c2cc(NC(=O)C(C)C)cc(C(=O)NC(C)c3cnccn3)c2)cc1 (centres unmarked)"
  LABEL_VALUE: "0 (no)"
- COMPOUND: "CCC(=O)N(c1cc(C(=O)NC(C)c2cnccn2)cc(-c2ccc(C)cc2)c1)c1ccncn1 (centres unmarked)"
  LABEL_VALUE: "0 (no)"
- COMPOUND: "CCN(C(=O)CC(C)C)c1cc(C(=O)NC(C)c2cnccn2)cc(-c2ccc(C)cc2)c1 (centres unmarked)"
  LABEL_VALUE: "1 (yes)"
